Reference source: patent US20060069132A1

Test system: large crabgrass
Method Summary: Test B pre-/postemergence herbicide test
Type: in vivo, Digitaria sanguinalis
Protocol Conditions: 125 g ai/ha; 0 = no effect, 100 = complete control; preemergence
With a cut-off of 10, any Crabgrass, Large plant response rating (0 to 100 scale) strictly below it is called YES; any Crabgrass, Large plant response rating (0 to 100 scale) meeting it or above is called NO.

{"Substance Smiles": "CCOC(=O)c1cccc(NC(=O)c2cn(C(C)(C)C)nc2CC)c1", "Classification": "YES"}
{"Substance Smiles": "CCn1nc(C2(C)CC2)cc1C(=O)Nc1cccc(C(=O)N(C)C)c1", "Classification": "NO"}
{"Substance Smiles": "CCn1nc(C(C)(C)C)cc1C(=O)Nc1cc(C(=O)N(C)C)c(F)cc1F", "Classification": "YES"}
{"Substance Smiles": "CCN(CC)C(=O)c1cccc(NC(=O)c2nn(C(C)(C)C)cc2C(F)(F)F)c1", "Classification": "YES"}
{"Substance Smiles": "CCc1nc(C(C)(C)C)sc1C(=O)Nc1cccc(C(=O)N(C)C)c1", "Classification": "NO"}
{"Substance Smiles": "CCc1nn(C(C)(C)C)cc1C(=O)Nc1ccc(F)c(C(=O)N(CC)CC)c1", "Classification": "NO"}
{"Substance Smiles": "CCc1nc(C(C)(C)C)sc1C(=O)Nc1cc(C(=O)N(CC)CC)ccc1F", "Classification": "NO"}
{"Substance Smiles": "CCN(CC)C(=O)c1cccc(NC(=O)c2nn(C(C)(C)C)cc2Br)c1", "Classification": "NO"}
{"Substance Smiles": "CCN(CC)C(=O)c1cc(NC(=O)c2cc(C(C)(C)C)nn2CC)c(F)cc1F", "Classification": "NO"}

====

System: bermudagrass
Method Summary: Test C pre-/postemergence herbicide test
Format: in vivo, Cynodon dactylon
Protocol Conditions: 62 g ai/ha; preemergence
Consider the following compounds and their measured Plant response rating (0 = no effect, 100 = complete control), Bermudagrass readings.
Quantity: Plant response rating (0 = no effect, 100 = complete control), Bermudagrass

{"Substance Smiles": "CCNC(=O)c1ccc(F)c(NC(=O)c2cc(C(C)(C)C)nn2CC)c1", "Measured Number": 85}
{"Substance Smiles": "CCn1nc(C(C)(C)C)cc1C(=O)Nc1cccc2c1CN(C)C2=O", "Measured Number": 60}
{"Substance Smiles": "C#CCNC(=O)c1cccc(NC(=O)c2cc(C(C)(C)C)nn2CC)c1", "Measured Number": 90}
{"Substance Smiles": "CCNC(=O)c1cc(NC(=O)c2cc(C(C)(C)C)nn2CC)ccc1F", "Measured Number": 90}

====

Consider the following compounds and their measured Plant response rating, Lambsquarters readings.
Tested on: lambsquarters
Method Summary: Test B pre-/postemergence herbicide test
Assay type: in vivo, Chenopodium album
Protocol Conditions: 500 g ai/ha; visual rating 0-100, 0 no effect, 100 complete control; preemergence
Quantity: Plant response rating, Lambsquarters

{"Compound": "CCCCn1nc(C(C)(C)C)cc1C(=O)Nc1cccc(C(C)=NO)c1 [Compound 119]", "Measurement Target": "lambsquarters", "Quantity": "Plant response rating, Lambsquarters", "Measured Number": 0}
{"Compound": "CCN(CC)C(=O)c1cccc(NC(=O)c2nn(C(C)(C)C)cc2C(F)(F)F)c1 [Compound 169]", "Measurement Target": "lambsquarters", "Quantity": "Plant response rating, Lambsquarters", "Measured Number": 60}
{"Compound": "CCNC(=O)c1cccc(NC(=O)c2cn(C(C)(C)C)nc2C)c1 [Compound 183]", "Measurement Target": "lambsquarters", "Quantity": "Plant response rating, Lambsquarters", "Measured Number": 100}
{"Compound": "CCCCNS(=O)(=O)c1cccc(NC(=O)c2cc(C(C)(C)C)nn2C)c1 [Compound 125]", "Measurement Target": "lambsquarters", "Quantity": "Plant response rating, Lambsquarters", "Measured Number": 0}
{"Compound": "CC(C)NS(=O)(=O)c1cccc(NC(=O)c2cc(C(C)(C)C)nn2C)c1 [Compound 124]", "Measurement Target": "lambsquarters", "Quantity": "Plant response rating, Lambsquarters", "Measured Number": 80}
{"Compound": "CCOC(=O)c1cc(N(C(C)=O)C(=O)c2cc(C(C)(C)C)nn2CC)ccc1C [Compound 141]", "Measurement Target": "lambsquarters", "Quantity": "Plant response rating, Lambsquarters", "Measured Number": 0}
{"Compound": "CCn1nc(C(C)(C)C)cc1C(=O)Nc1cccc(C(=O)OC(C)(C)C)c1 [Compound 98]", "Measurement Target": "lambsquarters", "Quantity": "Plant response rating, Lambsquarters", "Measured Number": 0}
{"Compound": "CC(=NO)c1cccc(NC(=O)c2cc(C(C)(C)C)nn2C(C)C)c1 [Compound 110]", "Measurement Target": "lambsquarters", "Quantity": "Plant response rating, Lambsquarters", "Measured Number": 90}
{"Compound": "CCn1nc(C(C)(C)C)cc1C(=O)Nc1cccc(SC(F)(F)F)c1 [Compound 130]", "Measurement Target": "lambsquarters", "Quantity": "Plant response rating, Lambsquarters", "Measured Number": 70}
